target: Melanocortin receptor 4 (Homo sapiens) (UniProt P32245); assay: MC4R antagonists in CRE-luciferase reporter cells, dose response, counter-screen for LGR2 antagonist project, cell-based, HEK293, luminescence, dry powder (AID 743505); conditions: antagonist mode, at 35 µM (top of the series)
Sequence (P32245 whole entry, looked up): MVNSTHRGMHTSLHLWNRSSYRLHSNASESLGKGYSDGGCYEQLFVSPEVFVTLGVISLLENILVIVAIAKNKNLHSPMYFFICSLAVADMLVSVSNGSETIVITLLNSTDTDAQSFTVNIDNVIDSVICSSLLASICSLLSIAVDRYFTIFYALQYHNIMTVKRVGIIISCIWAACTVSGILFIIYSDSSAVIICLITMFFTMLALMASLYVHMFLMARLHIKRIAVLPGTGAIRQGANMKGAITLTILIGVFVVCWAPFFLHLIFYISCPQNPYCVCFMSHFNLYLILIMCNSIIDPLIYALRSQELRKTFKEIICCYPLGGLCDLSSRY
Activity calls are given as the source filed them.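 Rule for the calls: active = dose curve with falling signal and an AC50 no higher than twice the top valid tested dose; inconclusive = flat curve with 30 to 70% inhibition, or a poor fit; inactive = rising signal, flat weak curve, or AC50 over that limit.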
MEASURED_PROPERTY: activity change, negative = inhibition

Below, each entry is followed by its recorded activity change, negative = inhibition result.
TEST_SMILES	activity change, negative = inhibition
C[C@H](CO)N1C[C@H](C)[C@H](CN(C)C(=O)Nc2ccc3c(c2)OCO3)OCCCC[C@H](C)Oc2ccc(NC(=O)NC3CCCCC3)cc2C1=O	inactive
C[C@@H]1CN([C@@H](C)CO)C(=O)c2cc(NC(=O)C3CCCCC3)ccc2O[C@@H](C)CCCCO[C@H]1CN(C)C(=O)Nc1cccc2ccccc12	inactive
C[C@H](CO)N1C[C@H](C)[C@H](CN(C)C(=O)Nc2ccc3c(c2)OCO3)OCCCC[C@H](C)Oc2ccc(NC(=O)C3CCCCC3)cc2C1=O	inactive
C[C@@H]1CCCCO[C@H](CN(C)C(=O)Nc2cccc3ccccc23)[C@@H](C)CN([C@@H](C)CO)C(=O)c2cc(NC(=O)C3CCCCC3)ccc2O1	inactive
COc1ccc(NC(=O)N(C)C[C@@H]2OCCCC[C@H](C)Oc3ccc(NC(=O)NC4CCCCC4)cc3C(=O)N([C@H](C)CO)C[C@@H]2C)cc1	inactive
C[C@@H]1CCCCO[C@H](CN(C)C(=O)Nc2cccc3ccccc23)[C@H](C)CN([C@@H](C)CO)C(=O)c2cc(NC(=O)C3CCCCC3)ccc2O1	inactive
C[C@H]1CCCCO[C@@H](CN(C)C(=O)Nc2ccccc2)[C@@H](C)CN([C@@H](C)CO)C(=O)c2cc(NC(=O)NC3CCCCC3)ccc2O1	inactive
COc1ccc(S(=O)(=O)N(C)C[C@@H]2OCCCC[C@H](C)Oc3ccc(NS(=O)(=O)c4ccc(F)cc4)cc3C(=O)N([C@@H](C)CO)C[C@@H]2C)cc1	inactive
CC(=O)Nc1ccc2c(c1)C(=O)N([C@H](C)CO)C[C@H](C)[C@H](CN(C)C(=O)Nc1ccc(F)cc1)OCCCC[C@H](C)O2	inactive

Kindly consider the entry below.
[in] Respond only with activity change, negative = inhibition recorded for "C[C@H](CO)N1C[C@H](C)[C@H](CN(C)C(=O)Nc2ccc(F)cc2)OCCCC[C@H](C)Oc2ccc(NC(=O)C3CCCCCC3)cc2C1=O"
[out] inactive
